Source listed as paper PMC5913336.

# TARGET OR SYSTEM: T1, Bicoid DBD-GST (Bcd) (UniProt P09081 83-170)
# T1 sequence: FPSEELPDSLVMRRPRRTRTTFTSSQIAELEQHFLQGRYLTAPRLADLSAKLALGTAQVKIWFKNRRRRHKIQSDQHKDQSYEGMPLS
# PROTOCOL: competitive fluorescence anisotropy (HiP-FA); mean of replicates 94.126, 94.115; HiP-FA: 33 mM phosphate pH 7.0, 90 mM NaCl, 0.01% Tween 20, 0.1 mM DTT, 0.5% agarose; conventional titration and EMSA: 20 mM Tris-acetate pH 7.0, 50 nM (sic) NaCl, 0.01% Tween-20, 0.1 mM DTT
# TEST SETTINGS: protein: recombinant; tags: N-terminal GST; blunt, G:G mismatch at position 6
QUANTITY: Kd (nM)

BINDER	QUANTITY	UNIT ANNOTATION	NUMERIC READOUT
Bcd competitor 19 (T7C) (dsDNA) DNA 1: TCGACGGTAACCCCTA DNA 2: TAGGGGTTACGGTCGA	Kd	nM	94.1
